biological target: TEAD2 (Homo sapiens (Human), UniProt Q15562);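 further: TR-FRET competition assay with His-tagged TEAD protein and a biotinylated lipid pocket probe, compound pre-incubated 30 min or 4 h at room temperature, displacement lowers signal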
Sequence (Q15562 whole entry, species assumed): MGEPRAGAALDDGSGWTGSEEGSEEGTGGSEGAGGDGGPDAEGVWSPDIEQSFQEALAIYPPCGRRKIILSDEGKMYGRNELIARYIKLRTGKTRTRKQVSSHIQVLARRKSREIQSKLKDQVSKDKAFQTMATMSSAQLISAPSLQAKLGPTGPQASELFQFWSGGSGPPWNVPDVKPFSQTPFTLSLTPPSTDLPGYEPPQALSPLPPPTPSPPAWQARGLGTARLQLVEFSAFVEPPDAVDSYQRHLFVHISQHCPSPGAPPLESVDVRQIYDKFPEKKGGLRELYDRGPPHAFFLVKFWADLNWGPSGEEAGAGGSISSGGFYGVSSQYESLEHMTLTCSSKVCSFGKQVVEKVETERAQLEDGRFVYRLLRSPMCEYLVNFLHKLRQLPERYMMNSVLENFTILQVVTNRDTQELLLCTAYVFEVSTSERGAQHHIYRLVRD
pIC50: −log10 of the molar value.
Quantity Kind: pIC50

compound="C=CC(=O)NCc1nn(-c2ccc(OC(F)(F)F)cc2)c2nccc(CO)c12 [Compound 32]" tested_system="TEAD2 (Homo sapiens (Human), UniProt Q15562)" value_observed=7.24
compound="C=C(F)C(=O)N1CC(c2nn(-c3ccc(OC(F)(F)F)cc3)c3nccc(N4CC(O)C4)c23)C1 [Compound 81]" tested_system="TEAD2 (Homo sapiens (Human), UniProt Q15562)" value_observed=7.62
compound="C=CC(=O)NCc1nn(-c2ccc(OC(F)(F)F)cc2)c2nccc([C@H](O)CO)c12 [Compound 17]" tested_system="TEAD2 (Homo sapiens (Human), UniProt Q15562)" value_observed=7.49
compound="C=CC(=O)NCc1nn(-c2ccc(OC(F)(F)F)cc2)c2nccc(-c3cnn(CCS(C)(=O)=O)c3)c12 [Compound 168]" tested_system="TEAD2 (Homo sapiens (Human), UniProt Q15562)" value_observed=5.96
compound="C=C(F)C(=O)NCc1nn(-c2ccc(OC(F)(F)F)cc2)c2nccc(CO)c12 [Compound 68]" tested_system="TEAD2 (Homo sapiens (Human), UniProt Q15562)" value_observed=6.26
compound="C=CC(=O)NCc1nn(-c2ccc(OC(F)(F)F)cc2)c2nccc([C@H]3COC(=O)O3)c12 [Compound 144]" tested_system="TEAD2 (Homo sapiens (Human), UniProt Q15562)" value_observed=6.82

I: C=CC(=O)NCc1nn(-c2ccc(OC(F)(F)F)cc2)c2nccc(-c3c[nH]cn3)c12 [Compound 119]
II: C=C(F)C(=O)N1CC(c2nn(-c3ccc(OC(F)(F)F)cc3)c3nccc(N4CC(F)(CO)C4)c23)C1 [Compound 39]
Query: Could you determine which record has the numerically smaller pIC50? Candidates: I and II State your choice using its label.
Result: I
(I: 6.60, II: 7.72)

1: C=CC(=O)NCc1nn(-c2ccc(OC(F)(F)F)cc2)c2nccc(N3CC(F)C3)c12 [Compound 84]
2: Cc1ccnc2c1c(C1CN(C(=O)/C=C/CO)C1)nn2-c1ccc(OC(F)(F)F)cc1 [Compound 96]
3: C=CC(=O)NCc1nn(-c2ccc(OC(F)(F)F)cc2)c2cccc(C#N)c12 [Compound 186]
4: C=C(F)C(=O)N1CC(c2nn(-c3ccc(OC(F)(F)F)cc3Cl)c3nccc(CO)c23)C1 [Compound 183]
5: C=CC(=O)NCc1nn(-c2ccc(OC(F)(F)F)cc2)c2nccc(N3CC(CO)C3)c12 [Compound 43]
Query: Let's sort these by pIC50, smallest first. Go ahead? Your task in answering is to list the labels in the requested order.
Result: 4, 3, 1, 5, 2

1: O=C(/C=C\Cl)NCc1nn(-c2ccc(OC(F)(F)F)cc2)c2nccc(CO)c12 [Compound 99]
2: C=CC(=O)NCc1nn(-c2ccc(OC(F)(F)F)cc2)c2nccc(-c3cnn(C4CC4)c3)c12 [Compound 173]
3: C=C(F)C(=O)N1CC(c2nn(-c3ccc(OC(F)(F)F)cc3)c3nccc(-c4cnn(C5CC5)c4)c23)C1 [Compound 177]
Query: Let's sort these by pIC50, smallest first. Go ahead? Your task in answering is to list the labels in the requested order.
Result: 3, 2, 1

Measured values drawn from patent US12110276B2 for this set.
